Study System: T1, soluble human erythropoietin receptor protein (huEpoR) (human) (UniProt P19235)
T1 sequence (looked up): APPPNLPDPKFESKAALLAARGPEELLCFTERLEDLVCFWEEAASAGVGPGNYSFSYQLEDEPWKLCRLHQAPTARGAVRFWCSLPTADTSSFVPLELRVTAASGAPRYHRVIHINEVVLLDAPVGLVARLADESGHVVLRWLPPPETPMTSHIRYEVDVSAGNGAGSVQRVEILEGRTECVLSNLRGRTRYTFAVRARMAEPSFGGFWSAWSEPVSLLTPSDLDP
Assay Name: SPR, Biacore T100; scFv-Fc captured by anti-human IgG Fc on CM5 chip, EpoR as analyte
Group membership follows kon per the scheme bottom end (below 60000 M⁻¹ s⁻¹), midrange (60000 M⁻¹ s⁻¹ to below 500000 M⁻¹ s⁻¹), top end (500000 M⁻¹ s⁻¹ or more)

Binder | Category Label
clone 307 scFv-Fc protein (Fc fusion, part only; not given: scFv linker and IgG1 Fc, not shown: a dimerising Fc or GST) scFv, part: EVQLVESGGGLVQPGGSLRLSCAVSGFTFSKYWMTWVRQAPGKGLEWVANIKPDGSEKYYVESVKGRFTISRDNAKNSVYLQMNSVRAEDTAVYYCARVSRGGSFSDWGQGTMVTVSSQSVLTQPPSASGSPGQSVTISCTGTSSDVGGYNYVSWYQQHPDKAPRLMIYDVNKRPSGVPDRFSGSKSGNTASLTVSGLQAEDEAHYYCNSYAGSNNWVFGGGTQLTVL | top end
clone 295 scFv-Fc protein (Fc fusion, part only; not given: scFv linker and IgG1 Fc, not shown: a dimerising Fc or GST) scFv, part: EVQLVESGGGLVQPGGSLRLSCAASGFTFSSYAMSWVRQAPGKGLEWVSGISGSGSSEGGTYYADSVKGRFTLSRDNSKNTLYLQMNSLRAEDTALYYCVKDRPSRYSFGYYFDYWGRGTLVTVSSLPVLTQPPSVSVSPGQTASIACSGNKLGDKYVSWYQQKPGQSPLLVIYQDTKRPSGIPERFSGSNSGNTATLTISGTQAMDEADYYCQAWDSSTDVVFGGGTKLTVL | bottom end
clone 16 scFv-Fc protein (Fc fusion, part only; not given: scFv linker and IgG1 Fc, not shown: a dimerising Fc or GST) scFv, part: QVQLQESGPGLVKPSETLSLTCTVSGGYINNYYWSWIRQPPGKGLEWIGYIHYSGSTYYNPSLKSRVTISEDTSKNQFSLKLSSATAADTAVYYCARVGYYYDSSGYNLAWYFDLWGRGTLVTVSASSELTQDPAVSVALGQTVRITCQGDNLRSYSATWYQQKPGQAPVLVLFGENNRPSGIPDRFSGSKSGDTAVLTITGTQTQDEADYYCTSRVNSGNHLGVFGPGTQLTVL | midrange
clone 319 scFv-Fc protein (Fc fusion, part only; not given: Linker and IgG1 Fc, not shown: another chain or arm of the molecule; a dimerising Fc or GST; small tags and cut ends) VH: QVQLVQSGAEIKKPGASVKVSCKTFGSPFSTNDIHWVRQAPGQGLEWMGIIDTSGAMTRYAQKFQGRVTVTRETSTSTVYMELSSLKSEDTAVYYCAREGCTNGVCYDNGFDIWGQGTLVTVSS VL: DIQMTQSPSTLSASIGDRVTITCRASEGIYHWLAWYQQKPGKAPKLLIYKASSLASGAPSRFSGSGSGTDFTLTISSLQPDDFATYYCQQYSNYPLTFGGGTKLEIK | midrange
clone 13 scFv-Fc protein (Fc fusion, part only; not given: scFv linker and IgG1 Fc, not shown: a dimerising Fc or GST) scFv, part: QVQLQQSGGGVVQPGRSLRLSCAASGFTFSDYAMHWVRQAPGKGLEWVAVISNHGKSTYYADSVKGRFTISRDNSKHMLYLQMNSLRADDTALYYCARDIALAGDYWGQGTLVTVSADIQMTQSPSSLSASVGDRVTITCRASQSISSYLNWYQQLPGKVPKLLIYGASKLQSGVPSRFSGSGSGTDFTLTISSLQPEDFATYYCLQDYNYPLTFGPGTRLEIK | bottom end
clone 330 scFv-Fc protein (Fc fusion, part only; not given: scFv linker and IgG1 Fc, not shown: a dimerising Fc or GST) scFv, part: EVQLVESGGGLVQPGGSLRLSCAVSGFTFSKYWMTWVRQAPGKGLEWVANIKPDGSEKYYVESVKGRFTISRDNAKNSVYLQMNSVRAEDTAVYYCARVSRGGSFSDWGQGTLVTVSSQSALTQPPSASGSPGQSVTISCTGTSSDVGAYNYVSWYQQHPGKAPKLMIYEVARRPSGVPDRFSGSKSGNTASLTVSGLQAEDEADYYCSSYAGSNNFAVFGRGTKLTVL | top end
clone 34 scFv-Fc protein (Fc fusion, part only; not given: Linker and IgG1 Fc, not shown: another chain or arm of the molecule; a dimerising Fc or GST; small tags and cut ends) VH: QVQLQQSGAEVKKPGASVKVSCKASGYTFSGYYMHWVRQAPGQGLEWMGWINPNSGSTNYAQKFLGRVTMTRDTSISTAYMELSSLRSDDTAVYYCARGHSGDYFDYWGQGTLVTVSA VL: EIVLTQSPSSLSASVGDRVTITCRASQSVSSWLAWYQQRPGQAPKLLIYAARLRGGGPSRFSGSGSGTEFTLTISSLQPEDFATYFCQQSYSTPISFGGGTKLEIK | top end
clone 318 scFv-Fc protein (Fc fusion, part only; not given: scFv linker and IgG1 Fc, not shown: a dimerising Fc or GST) scFv, part: QVQLVESGGGLVQPGGSLRLSCAVSGFTFSKYWMTWVRQAPGKGLEWVANIKPDGSEKYYVESVKGRFTISRDNAKNSVYLQMNSVRAEDTAVYYCARVSRGGSFSDWGQGTLVTVSSQSVLTQPPSASGSPGQSVTISCTGTSSDVGGYNYVSWYQQHPGRAPKLIIYEVSKRPSGVPDRFSGSKSGNTASLTVSGLQADDEADYYCNSYAGSIYVFGSGTKVTVL | top end
clone 201 scFv-Fc protein (Fc fusion, part only; not given: scFv linker and IgG1 Fc, not shown: a dimerising Fc or GST) scFv, part: QVQLQESGSGLARPSQTLSLTCAVSGGSISSSAFSWNWIRQPPGKGLEWIGYIYHTGITDYNPSLKSRVTISVDRSKNQFSLNVNSVTAADTAVYYCARGHGSDPAWFDPWGKGTLVTVSSQSVLTQPPSVSVSPGQTASITCSGDKLGDKYASWYQQRPGQSPVLVIYRDTKRPSGIPERFSGSNSGNTATLTISGTQAVDEADYYCQAWDSTTSLVFGGGTKLTVL | bottom end
